Molecular target: T1, human ubiquitin, wild type (human, UniProt P0CG48 1-76)
T1 construct: ubiquitin, human; the mature ubiquitin unit cut from its precursor; also called WT ubiquitin; source: E. coli BL21 STAR (DE3), purified (Ni-NTA, thrombin cleavage, benzamidine column, second Ni-NTA, Superdex 75); not shown: His6, N-terminal, cleaved
Assay: ITC; ubiquitin (2-3 mM) titrated into FAAP20 (0.2-0.3 mM); 25 mM sodium phosphate, 100 mM KCl, pH 7.0; 25°C; 28 injections of 10 μl; one-site binding fit
Conditions: both partners purified
Readings of Kd for the listed binders
Please reply with the bare figure in µM and do not write the unit itself.

# binder, assay.metric, assay.result
records = [
    ("GAAALRSCPMCQKEFAPRLTQLDVDSHLAQCLAESTEDVTW (domain or fragment, UniProt Q6NZ36 140-180, looked up, ends at the C-terminal W180; ZnSO4 was added at induction; 15N/13C-labelled for NMR; also called WT FAAP20; apo FAAP20; source: E. coli BL21 STAR (DE3), purified (Ni-NTA, TEV cleavage, second Ni-NTA, Superdex 75); not shown: His10, N-terminal, cleaved; GB1, N-terminal, cleaved) [human FAAP20 UBZ (residues 140-180 of FAAP20 isoform 2), wild type]", "Kd", 9.26),
]

Switching to the query record.
// Kd lookup, key: GAAALRSCPMCQKEFAPRLTQLDVDSHLAQCAAESTEDVTW (domain or fragment, UniProt Q6NZ36 140-180, looked up, source: E. coli BL21 STAR (DE3), purified (Ni-NTA, TEV cleavage, second Ni-NTA, Superdex 75); not shown: His10, N-terminal, cleaved; GB1, N-terminal, cleaved) [human FAAP20 UBZ L171A]
529
